B1: Pistol ribozyme (parent)
chain: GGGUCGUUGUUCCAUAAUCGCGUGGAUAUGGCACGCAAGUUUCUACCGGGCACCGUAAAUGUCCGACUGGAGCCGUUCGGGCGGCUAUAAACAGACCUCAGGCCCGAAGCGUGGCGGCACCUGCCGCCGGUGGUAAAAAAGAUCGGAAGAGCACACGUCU

variants of: B1; experiment: aptazyme ON/OFF ratio, guanine; higher = stronger switching; co-transcriptional cleavage with and without guanine
Recorded metric: aptazyme ON/OFF ratio
A bare number is all that is needed in reply.

Here is how some variants turned out for aptazyme ON/OFF ratio.
Variant spec: U7A U8A U10A U11G C12U C13A
aptazyme ON/OFF ratio: 1.34
//
Variant spec: U7C U8C G9U U10G U11C C12A C13A
aptazyme ON/OFF ratio: 1.18
//
Variant spec: U7G U8C G9C U10C U11C C12U C13A
aptazyme ON/OFF ratio: 1.05
//
Variant spec: U8G G9U U10G U11C C13A
aptazyme ON/OFF ratio: 1.02
//
Variant spec: U7G U8C U10A U11G
aptazyme ON/OFF ratio: 1.29

Data request: What value of aptazyme ON/OFF ratio has been reported for the following variant? U7C U8C U10C U11A C12G C13G
Data returned: 1.29

Data request: Input U7A U8G U10A C12A C13G
Data returned: 1.23

Data request: Input U7C U8A G9A U10A U11G C12G C13G
Data returned: 1.28

Data request: Input U7C U8C G9U U10C U11A C12G C13A
Data returned: 1.13

Data request: Input U7G U8G G9A U10A C12U C13G
Data returned: 1.15

Data request: Input U7G U8G G9U U10G C12U C13U
Data returned: 1.2

Data request: Input U7C U8C U10A U11C C12A
Data returned: 1.29

Data request: Input U7C U8C U10A U11A C12A C13A
Data returned: 1.1

Data request: Input U10C C12A C13A
Data returned: 1.23

Data request: Input U7A U8A G9C U10G U11A C12G C13A
Data returned: 1.26

Data request: Input U7A U8A G9A U11C
Data returned: 1.03

Data request: Input U7A U8C G9C U10G C12A C13G
Data returned: 1.12

Data request: Input U8C G9U U11C C12U C13U
Data returned: 1.1

Data request: Input U7A G9U U11A C12U C13U
Data returned: 1.22

Data request: Input U7C G9U U10A U11C C12G C13G
Data returned: 1.19

Data request: Input G9C U10A U11A C13U
Data returned: 1.32

Data request: Input U7G U8G G9U U11C C13A
Data returned: 1.4
